Hello, the source for this data is ChEMBL document CHEMBL5727499, in case you need it.

assay: HBV Replication Inhibition Assay: HBV replication inhibition by the compounds of this invention could be determined in cells infected or transfected with HBV, or cells with stably integrated HBV, such as HepG2.2.15 cells (Sells et al. 1987). In this example, HepG2.2.15 cells were maintained in cell culture medium containing 10% fetal bovine serum (FBS), Geneticin, L-glutamine, penicillin and streptomycin. HepG2.2.15 cells could be seeded in 96-well plates at a density of 40,000 cells/well and be treated with serially diluted compounds at a final DMSO concentration of 0.5% either alone or in combination by adding drugs in a checker box format. Cells were incubated with compounds for three days, after which medium was removed and fresh medium containing compounds was added to cells and incubated for another three days. At day 6, supernatant was removed and treated with DNase at 37° C. for 60 minutes, followed by enzyme inactivation at 75° C. for 15 minutes. Encapsidated HBV DNA was released from the virions and covalently linked HBV polymerase by incubating in lysis buffer (Affymetrix QS0010) containing 2.5 μg proteinase K at 50° C. for 40 minutes. HBV DNA was denatured by addition of 0.2 M NaOH and detected using a branched DNA (BDNA) QuantiGene assay kit according to manufacturer recommendation (Affymetrix). HBV DNA levels could also be quantified using qPCR, based on amplification of encapsidated HBV DNA extraction with QuickExtraction Solution (Epicentre Biotechnologies) and amplification of HBV DNA using HBV specific PCR probes that can hybridize to HBV DNA and a fluorescently labeled probe for quantitation. In addition, cell viability of HepG2.2.15 cells incubated with test compounds alone or in combination was determined by using CellTitre-Glo reagent according to the manufacturer protocol (Promega). The mean background signal from wells containing only culture medium was subtracted from all other samples, and percent inhibition at each compound concentration was calculated by normalizing to signals from HepG2.2.15 cells treated with 0.5% DMSO using equation E1.% inhibition=(DMSOave−Xi)/DMSOave×100% E1:where DMSOave is the mean signal calculated from the wells that were treated with DMSO control (0% inhibition control) and Xi is the signal measured from the individual wells. EC50 values, effective concentrations that achieved 50% inhibitory effect, were determined by non-linear fitting using Graphpad Prism software (San Diego, Calif.) and equation E2Y=Y min+(Y max−Y min)/(1+10(Log EC50−X)×HillSlope) E2:where Y represents percent inhibition values and X represents the logarithm of compound concentrations.; conditions: HepG2.2.15

{"compound": "CC1Cc2[nH]nc(C3CCCO3)c2CN1C(=O)Nc1ccnc(Br)c1F (configuration not stated)", "EC50": "750 nM"}

* * *

test: HBV Replication Inhibition Assay: HBV replication inhibition by the compounds of this invention could be determined in cells infected or transfected with HBV, or cells with stably integrated HBV, such as HepG2.2.15 cells (Sells et al. 1987). In this example, HepG2.2.15 cells were maintained in cell culture medium containing 10% fetal bovine serum (FBS), Geneticin, L-glutamine, penicillin and streptomycin. HepG2.2.15 cells could be seeded in 96-well plates at a density of 40,000 cells/well and be treated with serially diluted compounds at a final DMSO concentration of 0.5% either alone or in combination by adding drugs in a checker box format. Cells were incubated with compounds for three days, after which medium was removed and fresh medium containing compounds was added to cells and incubated for another three days. At day 6, supernatant was removed and treated with DNase at 37° C. for 60 minutes, followed by enzyme inactivation at 75° C. for 15 minutes. Encapsidated HBV DNA was released from the virions and covalently linked HBV polymerase by incubating in lysis buffer (Affymetrix QS0010) containing 2.5 μg proteinase K at 50° C. for 40 minutes. HBV DNA was denatured by addition of 0.2 M NaOH and detected using a branched DNA (BDNA) QuantiGene assay kit according to manufacturer recommendation (Affymetrix). HBV DNA levels could also be quantified using qPCR, based on amplification of encapsidated HBV DNA extraction with QuickExtraction Solution (Epicentre Biotechnologies) and amplification of HBV DNA using HBV specific PCR probes that can hybridize to HBV DNA and a fluorescently labeled probe for quantitation. In addition, cell viability of HepG2.2.15 cells incubated with test compounds alone or in combination was determined by using CellTitre-Glo reagent according to the manufacturer protocol (Promega). The mean background signal from wells containing only culture medium was subtracted from all other samples, and percent inhibition at each compound concentration was calculated by normalizing to signals from HepG2.2.15 cells treated with 0.5% DMSO using equation E1.% inhibition=(DMSOave−Xi)/DMSOave×100% E1:where DMSOave is the mean signal calculated from the wells that were treated with DMSO control (0% inhibition control) and Xi is the signal measured from the individual wells. EC50 values, effective concentrations that achieved 50% inhibitory effect, were determined by non-linear fitting using Graphpad Prism software (San Diego, Calif.) and equation E2Y=Y min+(Y max−Y min)/(1+10(Log EC50−X)×HillSlope) E2:where Y represents percent inhibition values and X represents the logarithm of compound concentrations.; conditions: HepG2.2.15
observable: EC50

{"structure smiles": "O=C(Nc1cccc(Cl)c1)N1CCc2[nH]nc(O)c2C1", "reported value": "> 10000 nM"}
